Field: pIC50. Provide a value for each of the compounds that follow.
# MEASUREMENT TARGET: human LXRβ (Homo sapiens)
# Sequence (P55055 1-460): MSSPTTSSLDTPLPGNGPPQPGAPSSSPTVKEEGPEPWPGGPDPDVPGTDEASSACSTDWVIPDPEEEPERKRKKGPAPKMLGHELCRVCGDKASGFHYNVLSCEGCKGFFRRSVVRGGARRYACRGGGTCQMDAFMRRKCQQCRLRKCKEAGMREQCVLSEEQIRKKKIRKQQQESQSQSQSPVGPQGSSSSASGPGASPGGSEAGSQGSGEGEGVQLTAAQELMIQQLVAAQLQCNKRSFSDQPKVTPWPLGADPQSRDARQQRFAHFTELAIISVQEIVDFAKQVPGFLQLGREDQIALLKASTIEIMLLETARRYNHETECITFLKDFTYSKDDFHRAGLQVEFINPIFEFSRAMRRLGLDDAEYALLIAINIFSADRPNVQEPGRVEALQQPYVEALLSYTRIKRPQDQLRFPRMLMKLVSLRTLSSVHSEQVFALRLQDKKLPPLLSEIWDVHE
The read-out pIC50 is expressed as -log10 of concentration in moles per litre.

What pIC50 value was documented for this compound, CCCCOCc1nc2c(C(F)(F)F)cccn2c1-c1ccc(Oc2cccc(S(C)(=O)=O)c2)cc1 ?
7.55

Now try CCS(=O)(=O)c1cccc(Oc2cccc(-c3c(C(C)(C)C)nc4c(C(F)(F)F)cccn34)c2)c1 .
8.25

Now try CCS(=O)(=O)c1cccc(Oc2cccc(-c3c(Cc4ccccc4)nc4c(C(F)(F)F)cccn34)c2)c1 .
8.89

Now try CC(C)S(=O)(=O)c1cccc(Oc2cccc(-c3c(C(C)(C)C)nc4c(C#N)cccn34)c2)c1 .
7.79
